Molecular target: CDK2/CyclinE1 (Homo sapiens, UniProt P24941)
Construct: purchased SignalChem C29-18G
Assay: Assay for inhibition of CDK2/CyclinE1 (Caliper microfluidic kinase assay)
Format: biochemical
Details: CDK2/CyclinE1, 100 μM ATP; read-out: CDK2 IC50
Procedure: The CDK2 enzyme assay for IC50 determination was performed as follows. Microfluidic kinase detection technology (Caliper) was used to monitor the phosphorylation of peptide substrate by CDK2/CyclinE1. […] The plate was loaded on Caliper EZ Reader (EZ Reader II, PerkinElmer, HD-4HYSG2772), and the reaction mixtures including substrate and product were sipped into the microfluidic chip for separation and detection. […]
pIC50: −log10 of the molar value.
resultType: pIC50

Consider the worked cases shown below.
{"columns": ["compound", "pIC50"],
 "data": [
  ["COc1nc(-c2nc(Nc3ccc(N4CCN(CCF)CC4)cn3)ncc2F)cc2c1ncn2C(C)C [compound 125]", "< 6.00"],
  ["COc1nc(-c2nc(Nc3ccc(N4CCN(CC(F)(F)F)CC4=O)cn3)ncc2F)cc2c1nc(C)n2C(C)C [compound 124]", "< 6.00"],
  ["CC(C)n1cnc2c(F)nc(-c3ccnc(Nc4ccc(N5CCC(C)(N)CC5=O)cc4F)n3)cc21 (stereo not shown) [compound 292]", "> 8.00"],
  ["CC(C)n1cnc2c(F)nc(-c3ccnc(Nc4ccc(N5CCNCC5=O)cn4)n3)cc21 [compound 273]", "7.00 to 8.00"],
  ["CCN1CCN(c2ccc(Nc3nccc(-c4cc5c(ncn5C(C)C)c(F)n4)n3)nc2)CC1 [compound 289]", "6.00 to 7.00"]
]}

For each of the compounds below, note its pIC50.
1. CC(C)n1cnc2c(F)nc(-c3ccnc(Nc4ccc(N5CC6CC5CN6)cn4)n3)cc21 (stereo not shown) [compound 272]
2. Cc1nc2c(F)nc(-c3ccnc(Nc4ccc(N5CCCC(N(C)C)C5=O)cn4)n3)cc2n1C(C)C (single isomer, unassigned) [Synthetic Example 303]

Response:
6.00 to 7.00
< 6.00

---

Exercise: for every item that follows, state its recorded pIC50.
Biological target: CDK2/CyclinE1 (Homo sapiens, UniProt P24941)
Construct: purchased SignalChem C29-18G
Assay: Assay for inhibition of CDK2/CyclinE1 (Caliper microfluidic kinase assay)
Format: biochemical
Settings: CDK2/CyclinE1, 100 μM ATP; read-out: CDK2 IC50
pIC50: −log10 of the molar value.

{"columns": ["compound", "assayedSystem", "pIC50"],
 "data": [
  ["CC(C)c1cnc2cnc(-c3ccnc(Nc4ccc(N5CCNCC5=O)cn4)n3)cn12 [Synthetic Example 143]", "CDK2/CyclinE1 (Homo sapiens, UniProt P24941)", "< 6.00"]
]}

Lab note: each compound below needs its pIC50 filled in.
1. CC(C)c1cnn2ccc(-c3ccnc(Nc4ccc(N5CCC(N(C)C)C5=O)cc4)n3)cc12 (stereo not shown) [compound 144]
2. COc1nc(-c2nc(Nc3ccc(N4CCN(CCS(C)(=O)=O)CC4=O)cn3)ncc2F)cc2c1nc(C)n2C(C)C [Synthetic Example 121]

Response:
1. > 8.00
2. < 6.00

Consider the following items and state reported pIC50 for each.
1. COc1nc(-c2ccnc(Nc3ccc(N4CCC(C)(N)C4)cn3)n2)cc2c1ncn2C(C)C (stereo not shown) [compound 117]
2. CC(C)n1cnc2c(F)nc(-c3ccnc(Nc4ccc(N5CCN(C)CC5)cn4)n3)cc21 [compound 290]
3. COc1nc(-c2ccnc(Nc3ccc(N4CCN(C5COC5)CC4)cn3)n2)cc2c1ncn2C(C)C [compound 130]
4. CC(C)c1cnn2ccc(-c3ccnc(Nc4ccc(C(=O)N5CCC(N(C)C)C5)cc4)n3)cc12 (stereo not shown) [compound 151]

Response:
1: < 6.00; 2: 6.00 to 7.00; 3: < 6.00; 4: > 8.00

All figures here come from patent US20220296595A1.
